System: GluN2B
Experiment: Western blot of GluN2B protein in cultured fetal cortical cells; also: test concentration or dose not given here
Format: cell-based, mice
Details: relative value, vehicle set to 1; treated for 24 hours; N 3 or more
Readout name: GluN2B expression, Western blot results, Mean

Molecule: CC(C)C1CCC(C(=O)O)CN1C(=O)Cc1ccc(F)cc1Cl (stereo not drawn) [BnH12096]
Assayed system: GluN2B
Value measured: 2.848
//
Molecule: C[C@@H]1CC[C@H](C(=O)[O-])CN1C(=O)Cc1cccnc1.[Na+] [BnH12068]
Assayed system: GluN2B
Value measured: 1.286

Continue with the molecule presented below.
*Q* GluN2B expression, Western blot results, Mean for C[C@H]1CC[C@@H](C(=O)O)CN1C(=O)Cc1ccccc1 [BnH12007] ?
*A* 1.311

Origin of the recorded values: patent US20250188032A1
